Biological target: IRE1a (Homo sapiens, UniProt O75460)
Sequence (O75460 19-977): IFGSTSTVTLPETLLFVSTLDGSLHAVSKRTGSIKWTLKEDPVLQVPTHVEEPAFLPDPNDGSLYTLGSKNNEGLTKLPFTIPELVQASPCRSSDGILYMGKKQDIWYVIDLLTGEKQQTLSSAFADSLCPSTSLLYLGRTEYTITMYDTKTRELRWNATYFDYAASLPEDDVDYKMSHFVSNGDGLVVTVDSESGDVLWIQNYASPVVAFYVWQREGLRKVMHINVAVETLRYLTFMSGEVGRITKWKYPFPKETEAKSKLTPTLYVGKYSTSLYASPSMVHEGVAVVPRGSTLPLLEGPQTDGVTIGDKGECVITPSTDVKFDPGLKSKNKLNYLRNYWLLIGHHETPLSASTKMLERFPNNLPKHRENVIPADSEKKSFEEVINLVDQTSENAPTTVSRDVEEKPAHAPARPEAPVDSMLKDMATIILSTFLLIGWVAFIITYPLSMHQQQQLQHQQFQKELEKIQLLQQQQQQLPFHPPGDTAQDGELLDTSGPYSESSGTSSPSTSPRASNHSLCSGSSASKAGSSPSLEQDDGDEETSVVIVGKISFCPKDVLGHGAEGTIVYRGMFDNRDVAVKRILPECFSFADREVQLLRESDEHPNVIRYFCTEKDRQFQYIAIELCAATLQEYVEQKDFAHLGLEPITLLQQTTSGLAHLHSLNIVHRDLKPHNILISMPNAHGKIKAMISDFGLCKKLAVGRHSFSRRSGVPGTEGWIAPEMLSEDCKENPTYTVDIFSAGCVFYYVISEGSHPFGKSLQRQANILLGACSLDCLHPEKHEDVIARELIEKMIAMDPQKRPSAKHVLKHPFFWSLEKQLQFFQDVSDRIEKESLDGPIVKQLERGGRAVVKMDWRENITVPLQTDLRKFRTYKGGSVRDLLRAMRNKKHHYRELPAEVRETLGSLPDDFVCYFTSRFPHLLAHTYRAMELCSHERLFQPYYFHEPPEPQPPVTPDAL
Experiment: IRE1a Endoribonuclease Nanoluciferase Assay (XBP1 luciferase reporter in 293T cells)
Conditions: XBP1 nanoluciferase reporter in 293T cells, ER stressor; tested as the salt named
Protocol: Compounds disclosed herein were assessed for disruption of IRE1 signaling using a IRE1a Endoribonuclease Nanoluciferase Assay. […] About 24 hours later, the cells were transfected with Effectene. […] Plates were read on luminometer, 1000 ms integration time per well. […] Plates were read on luminometer, 1000 ms second integration time per well.
Field: EC50. Provide a value for each of the compounds that follow.

Q: Write down the reported EC50 of N[C@H]1CC[C@H](Nc2ncc3cc(-c4cc(F)c(NS(=O)(=O)c5ccccc5Cl)cc4F)ccc3n2)CC1 , test system: IRE1a (Homo sapiens, UniProt O75460).
Result: < 5 nM

Q: Write down the reported EC50 of CCc1cc(-c2ncc(NS(=O)(=O)c3ccccc3Cl)nc2OC)cc2cnc(N[C@H]3CC[C@H](N)CC3)nc12 , test system: IRE1a (Homo sapiens, UniProt O75460).
Result: < 5 nM

Q: Write down the reported EC50 of CCc1cc(-c2nnc(NS(=O)(=O)c3ccccc3Cl)cc2OC)cc2cnc(N[C@H]3CC[C@H](N)CC3)nc12 , test system: IRE1a (Homo sapiens, UniProt O75460).
Result: 5 to 50 nM

Q: Write down the reported EC50 of N[C@H]1CC[C@@H](Nc2ncc3cc(-c4ccc(NS(=O)(=O)c5ccccc5Cl)c(F)c4)ccc3n2)C1 , test system: IRE1a (Homo sapiens, UniProt O75460).
Result: 100 to 10000 nM

Q: Write down the reported EC50 of COc1nc(NS(=O)(=O)c2ccccc2Cl)c(F)cc1-c1ccc2nc(N[C@H]3CC[C@H](N(C)C)CC3)ncc2c1 , test system: IRE1a (Homo sapiens, UniProt O75460).
Result: 5 to 50 nM

Q: Write down the reported EC50 of CCc1cc(-c2ccc(NS(=O)(=O)c3ccccc3Cl)nc2C)cc2cnc(N[C@H]3CC[C@H](N(C)CC4CCC4)CC3)nc12 , test system: IRE1a (Homo sapiens, UniProt O75460).
Result: < 5 nM

Q: Write down the reported EC50 of CCc1cc(-c2ccc(NS(=O)(=O)c3ccccc3Cl)c(F)c2)cc2cnc(N[C@@H]3CC[C@H](N)[C@H](C)C3)nc12 , test system: IRE1a (Homo sapiens, UniProt O75460).
Result: < 5 nM

The reported numbers originate from patent US12479818B2.
